# System name: T1, C-terminally FLAG-tagged human Gas6 recombinant protein (hGas6-F) (human, UniProt Q14393 31-678, gamma-carboxylated glutamic acid residues in the Gla domain (producer cells co-express rat VKOR and human GGCX); positions not given)
# T1 construct: also called human Gas6-F; human Gas6 protein
# T1 sequence: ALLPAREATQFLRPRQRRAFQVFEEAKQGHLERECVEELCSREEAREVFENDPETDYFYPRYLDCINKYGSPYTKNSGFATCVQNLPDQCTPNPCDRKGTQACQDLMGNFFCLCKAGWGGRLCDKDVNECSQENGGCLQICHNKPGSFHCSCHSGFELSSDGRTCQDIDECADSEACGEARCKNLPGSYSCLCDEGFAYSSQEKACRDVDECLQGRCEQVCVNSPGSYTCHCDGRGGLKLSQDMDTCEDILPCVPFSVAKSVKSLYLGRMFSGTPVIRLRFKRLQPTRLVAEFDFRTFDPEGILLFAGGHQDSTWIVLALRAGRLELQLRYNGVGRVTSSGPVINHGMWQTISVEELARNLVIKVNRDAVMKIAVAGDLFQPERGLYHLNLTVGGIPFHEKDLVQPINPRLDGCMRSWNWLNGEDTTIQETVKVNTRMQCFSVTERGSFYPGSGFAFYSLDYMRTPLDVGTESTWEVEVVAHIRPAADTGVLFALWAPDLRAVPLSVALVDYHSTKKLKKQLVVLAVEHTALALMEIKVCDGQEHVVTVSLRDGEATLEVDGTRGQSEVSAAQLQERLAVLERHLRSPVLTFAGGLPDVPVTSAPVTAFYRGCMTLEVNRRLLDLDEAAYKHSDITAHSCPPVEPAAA
# Protocol summary: SPR Biacore T100, captured antibody, Gas6 analyte, first test
Endpoint name: koff (s⁻¹)
Answer in s⁻¹, number only, no unit symbol.

Item: hzKM5321 LV7bHV7 antibody (antibody, V domains shown, Humanized; variant human IgG4 constant region (EU S228P, L235E, R409K), human kappa; also called B-20; LV7bHV7) VH: QIHLVQSGPELKKPGASVKISCKASGYTFTNYGMNWVKQAPGQGLKWMGWINTNTGEPTYTEEFKGRFVFSLDTSVTTAYLQISTLKAEDTATYFCARDEGWFVYWGQGTLITVSS VL: ETTVTQSPSSLSVSVGDRVTITCITSTDIDDDMNWYQQKPGKAPKLLISEGNTLRPGVPSRFSSSGSGTDFTFTISSTQPEDFADYYCLQTDSVPLTFGQGTKLEIK | koff: 0.000329

Briefly, koff measured for hzKM5320 LV5HV1 antibody (antibody, V domains shown, Humanized; variant human IgG4 constant region (EU S228P, L235E, R409K), human kappa; also called A-19) VH: QVQLVQSGSELKKPGASVKVSCKASGYTFTNYGMNWVRQAPGQGLKWMGWINTETGEPTYSDDFKGRFVFSLDTSVSTAYLQISSLKAEDTAVYYCAREDGYYGTLDYWGQGTTVTVSS VL: DIVMTQSPDSLAVSLGERVTINCKASQSVSNDVAWYQQKPGQSPKVLIYYASNRYTGVPDRFSGSGSGTDFTFTISSVQAEDVAVYFCQQDYSSPWTFGQGTKLEIK : 0.000184

koff in this record for hzKM5321 LV6HV4a antibody (antibody, V domains shown, Humanized; variant human IgG4 constant region (EU S228P, L235E, R409K), human kappa; also called B-27; LV6HV4a) VH: QIHLVQSGPELKKPGASVKISCKASGYTFTNYGMNWVRQAPGQGLEWMGWINTNTGEPTYTEEFKGRFVFSLDTSVTTAYLQISTLKAEDTAVYFCARDEGWFVYWGQGTLITVSS VL: ETTLTQSPSSLSVSTGDRVTITCITSTDIDDDMNWYQQKPGKPPKLLISEGNTLRPGVPSRFSSSGSGTDFTLTISSTQPEDFADYYCLQTDSVPLTFGQGTKVEIK : 0.000341
